- EXPERIMENT SUMMARY: activity coefficient (dimensionless); of the first substance listed, at infinite dilution; xn = mol fraction of the nth substance listed
- ASSAY CONTEXT: 332.85 K; 101 kPa; Liquid; Chromatography; x1 = 0
REPORTED PROPERTY: activity coefficient

Recorded activity coefficient, per entry:
For CC(C)CC(C)(C)C [2,2,4-trimethylpentane] + CCCCCC[n+]1ccn(C)c1.FC(F)(F)C(F)(F)[P-](F)(F)(F)(C(F)(F)C(F)(F)F)C(F)(F)C(F)(F)F , what is its reported activity coefficient?
7.13

Also, c1ccsc1 [thiophene] + CCCCCC[n+]1ccn(C)c1.FC(F)(F)C(F)(F)[P-](F)(F)(F)(C(F)(F)C(F)(F)F)C(F)(F)C(F)(F)F please.
0.602

Also, CCCCCCCCCCC [undecane] + CCCCCC[n+]1ccn(C)c1.FC(F)(F)C(F)(F)[P-](F)(F)(F)(C(F)(F)C(F)(F)F)C(F)(F)C(F)(F)F please.
25.5

Also, CCCCCCCCCC [decane] + CCCCCC[n+]1ccn(C)c1.FC(F)(F)C(F)(F)[P-](F)(F)(F)(C(F)(F)C(F)(F)F)C(F)(F)C(F)(F)F please.
19

Also, Cc1ccccc1 [toluene] + CCCCCC[n+]1ccn(C)c1.FC(F)(F)C(F)(F)[P-](F)(F)(F)(C(F)(F)C(F)(F)F)C(F)(F)C(F)(F)F please.
0.727

Further cases:
For ClCCl [dichloromethane] + CCCCCC[n+]1ccn(C)c1.FC(F)(F)C(F)(F)[P-](F)(F)(F)(C(F)(F)C(F)(F)F)C(F)(F)C(F)(F)F , what is its reported activity coefficient?
0.699

Also, CC1CCCCC1 [methylcyclohexane] + CCCCCC[n+]1ccn(C)c1.FC(F)(F)C(F)(F)[P-](F)(F)(F)(C(F)(F)C(F)(F)F)C(F)(F)C(F)(F)F please.
5.23

Also, CCC(C)=O [butanone] + CCCCCC[n+]1ccn(C)c1.FC(F)(F)C(F)(F)[P-](F)(F)(F)(C(F)(F)C(F)(F)F)C(F)(F)C(F)(F)F please.
0.195

Also, C1CCCCCC1 [cycloheptane] + CCCCCC[n+]1ccn(C)c1.FC(F)(F)C(F)(F)[P-](F)(F)(F)(C(F)(F)C(F)(F)F)C(F)(F)C(F)(F)F please.
13.2

Also, CCC(=O)CC [pentan-3-one] + CCCCCC[n+]1ccn(C)c1.FC(F)(F)C(F)(F)[P-](F)(F)(F)(C(F)(F)C(F)(F)F)C(F)(F)C(F)(F)F please.
0.28

Also, CCOCC [diethyl ether] + CCCCCC[n+]1ccn(C)c1.FC(F)(F)C(F)(F)[P-](F)(F)(F)(C(F)(F)C(F)(F)F)C(F)(F)C(F)(F)F please.
0.866

From: the NIST ThermoML archive (doi:10.1021/je200195q)
